molecular target: Phospholipase A and acyltransferase 2 (Homo sapiens); assay: Inhibition of full-length C-terminal FLAG-tagged human PLAAT2 expressed in HEK293T cell lysate preincubated for 30 mins followed by MB064 addition and measured after 20 mins by SDS-PAGE based ABPP analysis
pIC50: −log10 of the molar value.
Label 1 when pIC50 is at or above 6; otherwise label 0.

# compound, class.label
records = [
    ("COc1ccc(CCC(=O)C(=O)NCCc2ccccc2)cc1", 0),
    ("CN1CCN(C(=O)C(=O)CCc2ccc(Cl)cc2)CC1", 0),
    ("O=C(CCc1ccccc1)C(F)(F)C(=O)NCc1ccccc1", 0),
    ("COCCN(CCOC)C(=O)C(=O)CCc1ccc(Cl)cc1", 0),
    ("O=C(CCc1ccc(Cl)cc1)C(=O)NCCCCc1ccccc1", 1),
    ("O=C(/C=C/c1ccc(Cl)cc1)C(=O)NCCc1ccccc1", 0),
    ("O=C(CCc1ccc(Cl)cc1)C(=O)N1CC[C@@H](c2ccccc2)C1", 0),
    ("O=C(NCCc1ccccc1)C(=O)c1ccc(Cl)cc1", 0),
    ("O=C(CCc1ccc(Cl)c(Cl)c1)C(=O)NCCc1ccccc1", 0),
    ("O=C(NCc1ccccc1)C(F)(F)C(O)CCc1ccccc1 (stereo not given)", 0),
    ("O=C(CCc1ccc(F)cc1)C(=O)NCCc1ccccc1", 0),
    ("O=C(/C=C/c1ccccc1)C(=O)NCCc1ccccc1", 0),
    ("O=C(CCCc1ccccc1)C(=O)NCCc1ccc(Oc2ccc(C(F)(F)F)nc2)cc1", 1),
    ("Cc1ccc(CCC(=O)C(=O)NCCc2ccccc2)cc1", 0),
    ("O=C(CCc1ccc(Cl)cc1)C(=O)N1CCCCC1", 0),
    ("O=C(CCc1ccccc1)C(F)(F)C(=O)NCCc1ccccc1", 0),
    ("O=C(CCCc1ccccc1)C(=O)NCCc1ccc(Br)cc1", 1),
    ("O=C(CCCc1ccccc1)C(=O)NCCc1ccc(Oc2ccnc(Cl)n2)cc1", 1),
    ("COc1ccc(/C=C/C(=O)C(=O)NCCc2ccccc2)cc1", 0),
    ("O=C(CCc1ccc(Cl)cc1)C(=O)N1CCOCC1", 0),
    ("O=C(CCc1ccc(Cl)cc1)C(=O)N1CCCC[C@H]1c1ccccc1", 0),
    ("CN(C)C(=O)C(=O)CCc1ccc(Cl)cc1", 0),
    ("O=C(CCc1ccc(Cl)cc1)C(=O)N1CCCC1", 0),
    ("O=C(CCc1ccc(Cl)cc1)C(=O)N1CCC[C@H]1Cc1ccccc1", 0),
]

---

Biological target: Phospholipase A and acyltransferase 2 (Homo sapiens)
Sequence (Q9NWW9 whole entry): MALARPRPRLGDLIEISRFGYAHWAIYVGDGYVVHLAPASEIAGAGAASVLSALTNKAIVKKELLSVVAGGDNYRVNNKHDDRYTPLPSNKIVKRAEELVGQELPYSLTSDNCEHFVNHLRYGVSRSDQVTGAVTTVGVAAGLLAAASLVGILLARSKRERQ
Test: Inhibition of full-length C-terminal FLAG-tagged human PLAAT2 expressed in HEK293T cell lysate preincubated for 30 mins followed by MB064 addition and measured after 20 mins by SDS-PAGE based ABPP analysis
pIC50: −log10 of the molar value.
Listed here are compounds together with their documented pIC50.
measurement.kind: pIC50

# smiles.entry, bound.type, measurement
measured = [
    ("O=C(CCCc1ccccc1)C(=O)NCCc1ccc(Oc2ncccn2)cc1", "=", 5.70),
    ("O=C(CCCCc1ccccc1)C(=O)NCCc1ccccc1", "=", 5.50),
    ("Cc1ccc(CCNC(=O)C(=O)CCCc2ccccc2)cc1", "=", 5.70),
    ("O=C(CCCc1ccccc1)C(=O)NCCc1ccc(O)cc1", "=", 5.90),
    ("O=C(CCc1ccccc1)CC(=O)NCc1ccccc1", "<", 5.00),
    ("O=C(CCCc1ccccc1)C(=O)NCCc1ccc(Oc2cnccn2)cc1", "=", 6.30),
    ("O=C(/C=C/c1cccc(Br)c1)C(=O)NCCc1ccccc1", "<", 5.00),
    ("O=C(CCc1ccc(Cl)cc1)C(=O)NCc1ccccc1", "=", 5.60),
    ("O=C(/C=C/c1ccc(Br)cc1)C(=O)NCCc1ccccc1", "=", 5.30),
    ("O=C(NCCc1ccccc1)C(=O)c1ccccc1", "<", 5.00),
    ("O=C(CCc1ccccc1Cl)C(=O)NCCc1ccccc1", "=", 5.90),
    ("CCNC(=O)C(=O)CCc1ccc(Cl)cc1", "=", 5.60),
]
